For each of the compounds below, state its residual activity.
Molecular target: Tyrosine-protein kinase Blk (Homo sapiens) (UniProt P51451)
Sequence (P51451 2-505 limits assumed): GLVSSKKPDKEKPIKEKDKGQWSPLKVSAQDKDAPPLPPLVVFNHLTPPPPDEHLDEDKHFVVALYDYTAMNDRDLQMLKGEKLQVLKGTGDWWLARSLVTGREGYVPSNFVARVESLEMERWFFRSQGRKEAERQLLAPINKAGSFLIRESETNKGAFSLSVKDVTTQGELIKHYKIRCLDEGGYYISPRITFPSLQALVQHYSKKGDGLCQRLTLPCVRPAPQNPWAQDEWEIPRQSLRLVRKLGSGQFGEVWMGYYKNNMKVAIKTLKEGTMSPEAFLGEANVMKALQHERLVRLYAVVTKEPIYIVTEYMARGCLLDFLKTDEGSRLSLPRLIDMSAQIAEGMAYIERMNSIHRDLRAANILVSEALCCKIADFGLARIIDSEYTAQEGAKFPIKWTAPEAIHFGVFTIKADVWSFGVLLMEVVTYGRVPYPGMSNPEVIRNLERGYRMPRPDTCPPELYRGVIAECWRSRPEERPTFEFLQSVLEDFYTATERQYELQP
Details: at 1 µM
Entry format: amount then unit.

Request the reported residual activity associated with Nc1ncnc2c1c(-c1ccc(Oc3ccccc3)cc1)cn2C1CCCC1
0%

Any idea what residual activity was measured for O=C(Nc1nc2ccccc2n1CCN1CCOCC1)c1cccc([N+](=O)[O-])c1 ?
111%

Name the recorded residual activity for CCCCc1c(-c2ccc(O)cc2)[nH]c2nccnc12 .
73%

# input compound: NC(=O)c1ccc(-c2nc(-c3ccc4c(c3)OCCO4)c(-c3ccccn3)[nH]2)cc1 ; wanted: its residual activity
88%

Form field: reported residual activity of NCCNc1ncc(C(N)=O)c(Nc2cccc(C(F)(F)F)c2)n1
79%

Given NC(=O)Nc1sc(-c2ccc(F)cc2)cc1C(N)=O , state its recorded residual activity.
39%

Quick one: residual activity of COc1cc2nccc(Oc3ccc(NC(=S)NC(=O)c4ccccc4C)cc3)c2cc1OC ?
0%

Requested field: residual activity. Item: O=C(c1cc2cc(O)ccc2[nH]1)c1cc2cc(O)ccc2[nH]1
6%

Consider the compound shown here: CN(C)S(=O)(=O)c1ccc2c(c1)/C(=C/c1cc3c([nH]1)CCCC3)C(=O)N2 What is its recorded residual activity?
10%

Query: residual activity; subject: CCOC(=O)c1c(C)[nH]c(/C=C2\C(=O)Nc3ccccc32)c1C
89%

# get_value(readout='residual activity', item= N#C/C(=C\c1ccc(O)c(O)c1)C(=O)NCc1ccccc1 )
104%
